Biological target: T1, human OX40 on cells (CHO-K1/hu OX40) (human, UniProt P43489 29-277)
T1 construct: whole, on cells; Also used here for OX40 on the HEK293/OX40/NF-kb reporter cells and on human T cells in the functional assays; also called CHO-K1/OX40; human OX40 cells
T1 sequence (looked up): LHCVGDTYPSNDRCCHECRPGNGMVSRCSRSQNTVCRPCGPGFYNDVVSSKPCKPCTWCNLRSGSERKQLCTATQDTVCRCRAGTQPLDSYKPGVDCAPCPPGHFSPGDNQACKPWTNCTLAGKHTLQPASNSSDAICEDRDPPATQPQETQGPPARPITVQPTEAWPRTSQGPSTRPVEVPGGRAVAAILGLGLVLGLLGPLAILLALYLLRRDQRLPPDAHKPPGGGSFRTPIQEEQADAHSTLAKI
Experiment: FACS, CHO-K1/hu OX40 cells
# EC50 values compiled below
Numeric only. Scale: nM

Binder	U	Test Value
PR002057 (antibody, human IgG1, V domains shown, no light chain; also called anti-OX40 HCAb antibody) VH: EVQLLESGGGLVQPGGSLRLSCAASGFIFSSYAMSWVRQAPGKGLEWVSAISGGGGSTFYADSVRGRFTISRDNSKNTLYLQMNSLRAEDTAVYYCADGMTGTTDVDYWGQGTLVTVSS	nM	12.8
PR002058 (antibody, human IgG1, V domains shown, no light chain; also called anti-OX40 HCAb antibody) VH: EVQLLESGGGLVQPGGSLRLSCAASGFTFSSYAMSWVRQAPGKGLEWVSAISGGSGSTFYADSVRGRFTISRDNSKNTLYLQMNSLRAEDTAVYYCADGVTGTDFDFWGQGTLVTVSS	nM	5.79
PR002064 (antibody, human IgG1, V domains shown, no light chain; also called anti-OX40 HCAb antibody) VH: EVQLVETGGGLVQPGGSLRLSCAASGFTFSSYAMSWVRQAPGKGQEWVSAISGSGGSTFYADSVRGRFTISRDNSKNTLYLQMSSLRAEDTAVYYCANGMTGTTDVDYWGQGTLVTVSS	nM	22.4
PR002061 (antibody, human IgG1, V domains shown, no light chain; also called anti-OX40 HCAb antibody) VH: EVQLLESGGGLVQPGGSLRLSCAASGFTFSSYAMSWVRQAPGKGLEWVSAISGRGGSTYYADSVRGRFTISRDNSKNTLYLQMNSLRAEDTAVYYCANGMTGTTDVDYWGQGTLVTVSS	nM	10.9
PR002074 (antibody, human IgG1, V domains shown, no light chain; also called anti-OX40 HCAb antibody) VH: EVQLLESGGGLVQPGGSLRLSCAASGFTFSSYAMSWVRQAPGKGLEWVSGISGGGNNTFYADSVRGRFTISRDNSKNTLYLQMNSLRAEDTAVYYCMRGWELPLLENWGQGTLVTVSS	nM	1.27

# evaluate next
-- ask Look up EC50: PR002062 (antibody, human IgG1, V domains shown, no light chain; also called anti-OX40 HCAb antibody) VH: EVQLLESGGGLVQPGGSLRLSCAASGFTFSSYAMSWVRQAPGKGQEWVSAISGSGGSTFYADSVRGRFTISRDNSKNTLYLQMSSLRAEDTAVYYCANGMTGTTDVDYWGQGTLVTVSS
-- reply 37.9
